Data origin, for the record: patent US7491849B2

- System: PC-3 Cells
- method-description: Cellular polyamine and oligoamine levels, PC-3 cells (HPLC)
- Type: cell-based
- protocol-conditions: PC-3, Day 4 of Treatment, analog conc. 1 μM
Exercise: state measured Polyamine levels, Analog (cellular oligoamine level) for each of the molecules provided.
Give bare numbers, in nmoles/10^6 cells.

Consider the worked cases shown below.
{"columns": ["smiles", "observed-value"],
 "data": [
  ["CCNCCCCNCCCCNCCCCNCCCCNCCCCNCCCCNCCCCNCCCCNCCCCNCCCCNCCCCNCCCCNCCCCNCC.Cl.Cl.Cl.Cl.Cl.Cl.Cl.Cl.Cl.Cl.Cl.Cl.Cl.Cl", 0.055],
  ["CCNCCCCNCCCCNCCCCNCCCCNCCCCNCCCCNCCCCNCCCCNCCCCNCCCCNCCCCNCC.Cl.Cl.Cl.Cl.Cl.Cl.Cl.Cl.Cl.Cl.Cl.Cl", 0.021],
  ["CCNCCCCNCCCCNCCCCNCCCCNCCCCNCCCCNCCCCNCCCCNCCCCNCC.Cl.Cl.Cl.Cl.Cl.Cl.Cl.Cl.Cl.Cl", 0.513]
]}

Consider the additional molecule presented here.
Field Polyamine levels, Analog (cellular oligoamine level) (system: PC-3 Cells) for entry CCNCCCCNCCCCNCCCCNCCCCNCCCCNCCCCNCCCCNCC.Cl.Cl.Cl.Cl.Cl.Cl.Cl.Cl = 0.005

* * *

Exercise: state measured Polyamine levels, Analog (cellular oligoamine level) for each of the molecules provided.
- Tested on: DuPro Cells
- method-description: Cellular polyamine and oligoamine levels, DuPro cells (HPLC)
- Assay type: cell-based
- protocol-conditions: Day 4 of Treatment, analog conc. 0.8 μM

Consider the worked cases shown below.
{"columns": ["smiles", "observed-value"],
 "data": [
  ["CCNCCCCNCCCCNCCCCNCCCCNCCCCNCCCCNCCCCNCCCCNCCCCNCCCCNCCCCNCC.Cl.Cl.Cl.Cl.Cl.Cl.Cl.Cl.Cl.Cl.Cl.Cl", "0.032 nmoles/10^6 cells"],
  ["CCNCCCCNCCCCNCCCCNCCCCNCCCCNCCCCNCCCCNCCCCNCCCCNCCCCNCCCCNCCCCNCCCCNCC.Cl.Cl.Cl.Cl.Cl.Cl.Cl.Cl.Cl.Cl.Cl.Cl.Cl.Cl", "0.145 nmoles/10^6 cells"],
  ["CCNCCCCNCCCCNCCCCNCCCCNCCCCNCCCCNCCCCNCC.Cl.Cl.Cl.Cl.Cl.Cl.Cl.Cl", "0.575 nmoles/10^6 cells"]
]}

Consider the additional molecule presented here.
GET /value?item= CCNCCCCNCCCCNCCCCNCCCCNCCCCNCCCCNCCCCNCCCCNCCCCNCC.Cl.Cl.Cl.Cl.Cl.Cl.Cl.Cl.Cl.Cl &field=Polyamine levels, Analog (cellular oligoamine level) returns 0.525 nmoles/10^6 cells

* * *

Exercise: state measured Polyamine levels, Analog (cellular oligoamine level) for each of the compounds provided.
- Test system: PC-3 Cells
- method-description: Cellular polyamine and oligoamine levels, PC-3 cells (HPLC)
- Format: cell-based
- protocol-conditions: PC-3, Day 4 of Treatment, analog conc. 5 μM
One number for each entry, in nmoles/10^6 cells.

{"columns": ["compound", "observed-value"],
 "data": [
  ["CCNCCCCNCCCCNCCCCNCCCCNCCCCNCCCCNCCCCNCCCCNCCCCNCC.Cl.Cl.Cl.Cl.Cl.Cl.Cl.Cl.Cl.Cl [SL-11159]", 0.388],
  ["CCNCCCCNCCCCNCCCCNCCCCNCCCCNCCCCNCCCCNCCCCNCCCCNCCCCNCCCCNCC.Cl.Cl.Cl.Cl.Cl.Cl.Cl.Cl.Cl.Cl.Cl.Cl [SL-11226]", 0.026],
  ["CCNCCCCNCCCCNCCCCNCCCCNCCCCNCCCCNCCCCNCC.Cl.Cl.Cl.Cl.Cl.Cl.Cl.Cl [SL-11160]", 0.011]
]}

Consider the additional compound presented here.
GET /value?item= CCNCCCCNCCCCNCCCCNCCCCNCCCCNCCCCNCCCCNCCCCNCCCCNCCCCNCCCCNCCCCNCCCCNCC.Cl.Cl.Cl.Cl.Cl.Cl.Cl.Cl.Cl.Cl.Cl.Cl.Cl.Cl [SL-11175] &field=Polyamine levels, Analog (cellular oligoamine level) returns 0.128
